Give measured IC50 for each item. Keep answers brief.
molecular target: CDK4/Cyclin D1 (Homo sapiens); assay: Fluorescence polarization (FP) competitive binding assay; conditions: Table 15; read-out: CDK2/Cyclin D1 IC50
Sequence (P24385 whole entry): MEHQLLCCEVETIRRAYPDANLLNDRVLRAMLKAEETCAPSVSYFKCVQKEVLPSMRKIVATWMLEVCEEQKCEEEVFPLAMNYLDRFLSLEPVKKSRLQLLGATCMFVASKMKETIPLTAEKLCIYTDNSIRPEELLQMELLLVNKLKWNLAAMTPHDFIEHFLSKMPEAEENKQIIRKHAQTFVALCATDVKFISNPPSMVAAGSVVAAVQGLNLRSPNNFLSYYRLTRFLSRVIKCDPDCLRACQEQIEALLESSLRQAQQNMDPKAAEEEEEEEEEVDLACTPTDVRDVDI
Sequence (P11802 whole entry partner): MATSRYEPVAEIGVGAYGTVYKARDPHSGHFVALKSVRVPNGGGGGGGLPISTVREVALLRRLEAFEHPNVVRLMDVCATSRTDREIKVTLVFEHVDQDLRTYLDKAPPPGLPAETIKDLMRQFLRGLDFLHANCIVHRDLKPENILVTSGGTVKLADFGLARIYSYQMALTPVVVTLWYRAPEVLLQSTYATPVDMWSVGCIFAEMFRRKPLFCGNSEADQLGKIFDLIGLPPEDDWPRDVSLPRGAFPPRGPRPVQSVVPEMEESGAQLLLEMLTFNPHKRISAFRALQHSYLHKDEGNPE

// below: answered molecules
INSERT INTO measurements (molecule, recorded_result) VALUES
  ('Cc1nc(C(=O)N[C@@H](CCCNC(=N)N)C(=O)NC(CC(=O)NCc2ccccc2)CC(C)C)nn1-c1cc(Cl)cc(Cl)c1 (stereo partly drawn)', '> 180 µM'),
  ('CCN(CCc1ccccc1)C(=O)CC(CC(C)C)NC(=O)[C@H](CCCNC(=N)N)NC(=O)c1nc(C)n(-c2cc(Cl)cc(Cl)c2)n1 (stereo partly drawn)', '> 180 µM');

Okay, now this molecule:
Problem: Specify measured IC50 for Cc1nc(C(=O)N[C@@H](CCCNC(=N)N)C(=O)NC(CC(=O)NCCc2ccccc2)CC(C)C)nn1-c1cc(Cl)cc(Cl)c1 (stereo partly drawn) .
Result: > 180 µM
